B1: RHOBTB3 (parent)
chain: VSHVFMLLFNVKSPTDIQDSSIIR

variants of: B1; assay: protein stability index of a GFP-peptide fusion (GPS, HEK-293T) (PSI 1-6); higher = more stable; details: c terminus: a fixed tail appended;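 also: lentivirally expressed fusions sorted by FACS into six bins by GFP to DsRed ratio, PSI derived from sequencing read proportions per bin multiplied by bin number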
I would appreciate it if you labelled entries 1 when protein stability index is 3 or higher, otherwise 0.

>>> label_value("VSHVFDLLFNVKSPTDIQDSSIIR")
0
>>> label_value("VKHVFMLLFNVKSPTDIQDSSIIR")
1
>>> label_value("VSHVFMLLFNVKSPTDIQFSSIIR")
0
>>> label_value("VSHVFMKLFNVKSPTDIQDSSIIR")
0
>>> label_value("VSLVFMLLFNVKSPTDIQDSSIIR")
0
>>> label_value("VSHVFMLLFNVKSPTDIQDSHIIR")
0
>>> label_value("VSHVFCLLFNVKSPTDIQDSSIIR")
0
>>> label_value("FSHVFMLLFNVKSPTDIQDSSIIR")
0
>>> label_value("VSHVFMLLTNVKSPTDIQDSSIIR")
0
>>> label_value("VSHVFMLLFNVKSPTDIQDSSIIL")
0
>>> label_value("VSHVFMLLFNVKSPTDIDDSSIIR")
1
>>> label_value("VSHVSMLLFNVKSPTDIQDSSIIR")
0
>>> label_value("VSHVFMLLFNGKSPTDIQDSSIIR")
1
>>> label_value("VSHVFMLLFNVKSPTDIQDSSIIY")
0
>>> label_value("VSHVHMLLFNVKSPTDIQDSSIIR")
0
>>> label_value("VSHVFMLLFNDKSPTDIQDSSIIR")
0
>>> label_value("VSHPFMLLFNVKSPTDIQDSSIIR")
0
>>> label_value("VDHVFMLLFNVKSPTDIQDSSIIR")
0
>>> label_value("VSHVFMLLFNVKSPVDIQDSSIIR")
1
>>> label_value("VSHVFMLLFNVKSPTDIQDMSIIR")
1
>>> label_value("VSHVFELLFNVKSPTDIQDSSIIR")
0
>>> label_value("VSHVFMLHFNVKSPTDIQDSSIIR")
0
>>> label_value("VSHVDMLLFNVKSPTDIQDSSIIR")
0
>>> label_value("VSHVFMLLFNVYSPTDIQDSSIIR")
0
>>> label_value("VSHVFMLLFNVKSPLDIQDSSIIR")
0
>>> label_value("VSHVFMLLFNVKSPTDIQDKSIIR")
0
>>> label_value("VSHVFMLDFNVKSPTDIQDSSIIR")
0
>>> label_value("VSHVFMLLFWVKSPTDIQDSSIIR")
1
>>> label_value("VSHVFMLLFNVKSPKDIQDSSIIR")
1
>>> label_value("VSHGFMLLFNVKSPTDIQDSSIIR")
0
>>> label_value("VSHVFILLFNVKSPTDIQDSSIIR")
0
>>> label_value("VSHNFMLLFNVKSPTDIQDSSIIR")
0
>>> label_value("VSHVFMLLFNVKSPTDTQDSSIIR")
0
>>> label_value("VSHVFMLLFNVKSPTRIQDSSIIR")
1
>>> label_value("VSHVPMLLFNVKSPTDIQDSSIIR")
0
>>> label_value("VSHVAMLLFNVKSPTDIQDSSIIR")
0
>>> label_value("VSHVFMLLFNVKSPTDIQDSSFIR")
0
>>> label_value("VSHVFMLLINVKSPTDIQDSSIIR")
0
>>> label_value("VSHVFMLLFNVKSPTDICDSSIIR")
0
>>> label_value("VSHVFMLLFNVKFPTDIQDSSIIR")
1
>>> label_value("VSHVFMLLFPVKSPTDIQDSSIIR")
0
>>> label_value("VSHVFMLLFNVKLPTDIQDSSIIR")
1
>>> label_value("VSHVFMLLFNVKSPTDIQDASIIR")
0
>>> label_value("VSHVFMLLFNVKSPTDIQDSYIIR")
1
>>> label_value("VSHVFMLLFNQKSPTDIQDSSIIR")
0
>>> label_value("VSGVFMLLFNVKSPTDIQDSSIIR")
1
>>> label_value("VSHVTMLLFNVKSPTDIQDSSIIR")
0
>>> label_value("VSHVFMLLFNVKSPTDSQDSSIIR")
0
>>> label_value("VSHVFMLLFNVKSPTDYQDSSIIR")
0
>>> label_value("VSHVFMLLFNVRSPTDIQDSSIIR")
1
>>> label_value("VSHVFSLLFNVKSPTDIQDSSIIR")
0
>>> label_value("VLHVFMLLFNVKSPTDIQDSSIIR")
1
>>> label_value("VSHVFMLLFNVKSPTDIQDSSINR")
1
>>> label_value("VSHVFMLLFNVKSPTYIQDSSIIR")
1
>>> label_value("VSHVFMLLFNVKSYTDIQDSSIIR")
1
>>> label_value("VSHVFMLLFNVKSPTDIQDTSIIR")
0
>>> label_value("PSHVFMLLFNVKSPTDIQDSSIIR")
1
>>> label_value("VSHVFMLLFNVKSPTDIKDSSIIR")
0
>>> label_value("VSHVFMLLFNVKSPTDKQDSSIIR")
0
>>> label_value("VSSVFMLLFNVKSPTDIQDSSIIR")
0
>>> label_value("VMHVFMLLFNVKSPTDIQDSSIIR")
1
>>> label_value("VSHVFMLLFNVKSPTDIQASSIIR")
1
>>> label_value("VSHVFMLLFNVKSPTDIQDSSIRR")
0
>>> label_value("VSHVFMLLFNVKSPTDRQDSSIIR")
1
>>> label_value("VSHVFMLLFNVKSPTDIQDSMIIR")
0
>>> label_value("VVHVFMLLFNVKSPTDIQDSSIIR")
1
>>> label_value("VSHVFMLLFCVKSPTDIQDSSIIR")
0
>>> label_value("VSVVFMLLFNVKSPTDIQDSSIIR")
1
>>> label_value("VSHVFMLLFNVKSPTFIQDSSIIR")
0
>>> label_value("VSHVFMLLFNVKSLTDIQDSSIIR")
0
>>> label_value("VSHVFMLLFNVKSPTDIQDSSIYR")
1
>>> label_value("VSHVFMLLFNVKSPTCIQDSSIIR")
0
>>> label_value("VSHVFMLCFNVKSPTDIQDSSIIR")
0
>>> label_value("VSHVFMLLANVKSPTDIQDSSIIR")
0
>>> label_value("VSHVFMLSFNVKSPTDIQDSSIIR")
0
>>> label_value("VSHVFMLLFNVKSPTDIQDSTIIR")
1
>>> label_value("VSHVRMLLFNVKSPTDIQDSSIIR")
0
>>> label_value("VSHKFMLLFNVKSPTDIQDSSIIR")
0
>>> label_value("VSHVFMLLFNVKSPTDIQDSIIIR")
0
>>> label_value("SSHVFMLLFNVKSPTDIQDSSIIR")
0
>>> label_value("VSHVFMLLFNVKSPTDIQDFSIIR")
0
>>> label_value("VSHVFMLLFNVKSPTDIQDSSIIF")
0
>>> label_value("VSHVFMLLFNVKSPTDIYDSSIIR")
1
>>> label_value("VSHVFMLLFNVESPTDIQDSSIIR")
0
